Numbers sourced from ChEMBL document CHEMBL2375212.

assay notes: Cytotoxicity against mouse SVEC cells by MTT assay
Type: functional, cell-based
measurement kind: IC50 (µM)
Express the result in µM but write the number alone.

Task item: Which measured IC50 value corresponds to `COc1cc(-c2cc(-c3cc(OC)c(OC)c(OC)c3)on2)ccc1O` ?
Reply: 23.5

###

Test system: MCF7
assay notes: Cytotoxicity against human MCF7 cells compound treated for 6 hrs measured 48 hrs post washout by MTT assay
Format: functional, cell-based
pIC50: −log10 of the molar value.
Quick rule for you: pIC50 at 6 or higher means Yes, lower means No.

Task item: Given the entry `O=C(/C=C/c1cc(Br)c(Br)[nH]1)c1ccc[nH]1` , answer whether its pIC50 meets or surpasses 6.
Reply: Yes

Task item: Given the entry `COc1ccc(C(=O)/C=C/c2cc(Br)c(Br)[nH]2)c(OC)c1` , answer whether its pIC50 meets or surpasses 6.
Reply: Yes

Task item: Given the entry `Cn1c(/C=C/C(=O)c2ccc[nH]2)cc(Br)c1Br` , answer whether its pIC50 meets or surpasses 6.
Reply: Yes

Task item: Given the entry `O=C(/C=C/c1cc(Br)c(Br)[nH]1)c1ccccc1` , answer whether its pIC50 meets or surpasses 6.
Reply: No

Task item: Given the entry `Cn1c(-c2cc(=O)c3ccccc3o2)cc(Br)c1Br` , answer whether its pIC50 meets or surpasses 6.
Reply: No

Task item: Given the entry `Cn1c(/C=C/C(=O)c2cccc(N)c2)cc(Br)c1Br` , answer whether its pIC50 meets or surpasses 6.
Reply: No

Task item: Given the entry `Cn1c(-c2cc(-c3ccc[nH]3)no2)cc(Br)c1Br` , answer whether its pIC50 meets or surpasses 6.
Reply: No

Task item: Given the entry `COc1ccc(OC)c(C(=O)/C=C/c2cc(Br)c(Br)n2C)c1` , answer whether its pIC50 meets or surpasses 6.
Reply: Yes

Task item: Given the entry `Cn1c(/C=C/C(=O)c2ccccc2)cc(Br)c1Br` , answer whether its pIC50 meets or surpasses 6.
Reply: No

Task item: Given the entry `Cn1c(/C=C/C(=O)c2ccccc2O)cc(Br)c1Br` , answer whether its pIC50 meets or surpasses 6.
Reply: No

Task item: Given the entry `Oc1ccccc1-c1cc(-c2cc(Br)c(Br)[nH]2)on1` , answer whether its pIC50 meets or surpasses 6.
Reply: No
